System: α7 integrin (LacZ reporter in α7+/LacZ myotubes)
Assay: Myotube α7 integrin FDG assay (Burkin assay in myotubes, 96-well)
Format: cell-based, mouse
Details: myotubes, 10 uM
We use 0.9 as the dividing line for Burkin Assay in Myotubes, α7 integrin LacZ reporter signal relative to DMSO: on or above the line is Yes, below is No.

Ask: Say whether COc1ccc(C(=O)Cn2nnc(-c3ccccc3NC(=O)c3ccco3)n2)cc1 shows Burkin Assay in Myotubes, α7 integrin LacZ reporter signal relative to DMSO of 0.9 or more.
Reply: No

Ask: Say whether CC(=O)Nc1ccc(N(C(=O)c2cnccn2)C(C(=O)NC2CCCCC2)c2ccc(F)cc2)cc1 (stereo not drawn) shows Burkin Assay in Myotubes, α7 integrin LacZ reporter signal relative to DMSO of 0.9 or more.
Reply: Yes

Ask: Say whether O=C(CCc1ccccc1)c1nnc(-c2ccccc2)o1 shows Burkin Assay in Myotubes, α7 integrin LacZ reporter signal relative to DMSO of 0.9 or more.
Reply: No

Ask: Say whether O=[N+]([O-])c1ccc(N2CCN(c3ccccc3F)CC2)nc1 shows Burkin Assay in Myotubes, α7 integrin LacZ reporter signal relative to DMSO of 0.9 or more.
Reply: Yes

Ask: Say whether COc1ccccc1C(=O)Nc1ccnn1C1CCN(C(=O)c2ccoc2)CC1 shows Burkin Assay in Myotubes, α7 integrin LacZ reporter signal relative to DMSO of 0.9 or more.
Reply: Yes

Ask: Say whether COc1ccccc1C(=O)NCCOc1ccc(C(C)(C)C)cc1 shows Burkin Assay in Myotubes, α7 integrin LacZ reporter signal relative to DMSO of 0.9 or more.
Reply: Yes

All figures here come from patent US9980943B2.
